Values from ChEMBL document CHEMBL3885881

Species on record: Rattus norvegicus
Assay text: DrugMatrix - Regimen: Daily Repeat
Format: toxicity, organism-based, Sprague-Dawley
Parameters: regimen Daily Repeat, gender Male, age 6-8 weeks
Condition notes: in vivo, po, 0 mg/kg, 120 h, tissue Plasma, route oral GAVAGE, dose level Control, time 5 day, vehicle 100 % WATER
Measurement name: CHLORIDE (MEQ/L)
One number for each entry, in MEQ/L.

Sample records with CHLORIDE:
CC(O)CO (centres undefined) | 100.33
Cc1onc(-c2ccccc2Cl)c1C(=O)N[C@@H]1C(=O)N2[C@@H]1SC(C)(C)[C@@H]2C(=O)O | 100.33
Nc1c2c(nc3ccccc13)CCCC2 | 101.67

Turning to the following compound.
q: GET /values?readout=CHLORIDE&item= C[C@H]1c2cccc(O)c2C(=O)C2=C(O)[C@]3(O)C(=O)C(C(N)=O)=C(O)[C@@H](N(C)C)[C@@H]3[C@@H](O)[C@@H]21.O
a: 101.5

---

Organism: Rattus norvegicus
Assay text: DrugMatrix - Regimen: Daily Repeat
Assay type: toxicity, organism-based, Sprague-Dawley
Design: regimen Daily Repeat, gender Male, age 6-8 weeks
Condition notes: in vivo, po, 0 mg/kg, […], tissue Blood, route oral GAVAGE, dose level Control, time 28 day, vehicle .5 % CMC
Measurement name: ABSOLUTE BASOPHIL (cells/µL)
Numbers only, in cells/µL.

q: GET /values?readout=ABSOLUTE BASOPHIL&item= Cc1ccc2cc3c(ccc4ccccc43)c3c2c1CC3
a: 150

---

Species on record: Rattus norvegicus
Assay text: DrugMatrix - Regimen: Daily Repeat
Assay type: toxicity, organism-based, Sprague-Dawley
Design: regimen Daily Repeat, gender Male, age 6-8 weeks
Condition notes: in vivo, po, 0 mg/kg, […], tissue Blood, route oral GAVAGE, dose level Control, time 14 day, vehicle .5 % CMC
Measurement name: ERYTHROCYTE COUNT (x10E6/uL)
Numbers only, in x10E6/uL.

Sample records with ERYTHROCYTE COUNT:
CCOP(=S)(OCC)Oc1nc(Cl)c(Cl)cc1Cl | 7.02
ClC(Cl)Br | 6.14
COc1ccc(C(=O)Nc2c(Cl)c[n+]([O-])cc2Cl)c2ccc(C(F)(F)F)nc12 | 7.78

Turning to the following compound.
q: GET /values?readout=ERYTHROCYTE COUNT&item= ClC(Br)Br
a: 6.14

---

Organism: Rattus norvegicus
Assay text: DrugMatrix - Regimen: Daily Repeat
Assay type: toxicity, organism-based, Sprague-Dawley
Design: regimen Daily Repeat, gender Male, age 6-8 weeks
Condition notes: in vivo, po, 0 mg/kg, 72 h, tissue Blood, route oral GAVAGE, dose level Control, time 3 day, vehicle .5 % CMC
Measurement name: HEMOGLOBIN

Cc1ccc2cc3c(ccc4ccccc43)c3c2c1CC3 | 13.48 G/DL
CC(C)(C)NC(=O)[C@@H]1C[C@@H]2CCCC[C@@H]2CN1C[C@@H](O)[C@H](Cc1ccccc1)NC(=O)[C@H](CC(N)=O)NC(=O)c1ccc2ccccc2n1 | 13.45 G/DL
CN1CCN(CCCN2c3ccccc3Sc3ccc(Cl)cc32)CC1 | 13.8 G/DL

Turning to the following compound.
q: GET /values?readout=HEMOGLOBIN&item= OCCN(CCO)c1nc(N2CCCCC2)c2nc(N(CCO)CCO)nc(N3CCCCC3)c2n1
a: 14.82 G/DL
